# OD450 values compiled below
# tested on: T1, 4-1BB Fc (human, UniProt Q07011 24-183)
# T1 construct: also called rh-41BB; 41BB-hFc
# T1 sequence (Q07011 24-183): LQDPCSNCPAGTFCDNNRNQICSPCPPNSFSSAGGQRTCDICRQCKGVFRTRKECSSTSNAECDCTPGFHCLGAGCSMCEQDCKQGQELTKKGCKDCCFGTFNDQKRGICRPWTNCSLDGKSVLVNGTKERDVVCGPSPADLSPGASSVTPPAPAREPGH
# test summary: ELISA, 4-1BB Fc coated, VHH at 5 nM

4-1BB-2 (VHH, not shown: small tags and cut ends) VHH: QVQLVESGGGLVQAGGSLRLSCAASGSIFSYNAMAWYRQAPGKQRELVALITSDRTTKYADSVKGRFTISRDDTKNTVDLEMNSLKPEDTAVYTCAALLNSARTSWGQGTQVTVSS: 0.07
4-1BB-56 (VHH, not shown: small tags and cut ends) VHH: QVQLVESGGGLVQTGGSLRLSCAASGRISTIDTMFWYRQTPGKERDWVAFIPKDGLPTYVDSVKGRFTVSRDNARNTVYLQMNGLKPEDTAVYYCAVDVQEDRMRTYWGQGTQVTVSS: 2.89
4-1BB-36 (VHH, not shown: small tags and cut ends) VHH: EVQLVESGGGLVQPGGSLRLSCAASRRTFSSYTAGWFRQAPGKEREFVASIRWISGTTTYADSVNGRFTISRDIAKNTVYLQMNSLKPDDTAVYYCAVDLSSDNDYDYWGQGTQVTVSS: 1.35

Name the recorded OD450 for 4-1BB-9 (VHH, not shown: small tags and cut ends) VHH: QVQLVESGGGLVQAGGSLRLSCAASGSIFSYNAVAWYRQAPGKQRELVAVITSGGETTKYADSVKGRFTISRDITKNAVDLQMVSLKPEDTAVYTCAALRNSGSTSWGQGTQVTVSS .
0.084
